# Experimental target: MBP-FoxP1dN (Mus musculus, UniProt P58462 326-579)
# Sequence: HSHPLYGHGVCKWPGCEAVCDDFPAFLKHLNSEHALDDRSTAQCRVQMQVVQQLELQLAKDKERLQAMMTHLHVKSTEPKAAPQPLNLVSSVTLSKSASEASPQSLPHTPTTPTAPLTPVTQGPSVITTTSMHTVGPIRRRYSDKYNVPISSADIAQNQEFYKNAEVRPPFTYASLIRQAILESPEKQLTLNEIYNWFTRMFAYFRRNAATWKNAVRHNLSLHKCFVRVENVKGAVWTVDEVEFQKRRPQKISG
# Assay: PD-seq (MBP pull-down with sequencing); 20 mM Tris-HCl pH 7.5, 100 mM NaCl, 1.5 mM MgCl2, 0.4 uM protein, 0.1 uM dsDNA library, 30 min, room temperature, amylose pull-down; high values mean tight binding
# Cond: protein: recombinant; tags: His6-MBP; chain copies: 2; dsDNA, one strand shown
In all, about 16,000 sequences were measured (“rpm ratio (pull-down/input)”: median about 0.94, highest 2% from about 1.7 on). Many of the other results were omitted from the sample, so the highest values are more common in it than they were.
Readings of binding signal for the listed sequences

Sequence entry: GATGATTGTTCTCCCAGCTGATGAATTTTGAATATCGAGTAAACAAATTTTCCTAATCTTTCTGTTCAAGCGCCATCTAC
binding signal: 1.07 RPM ratio (pull-down/input)

Sequence entry: GATGATTGTTCTCCCAGCTGATGAATTGGTTTGTTCGAGTAAACAAATTTTCCTAATCTTTCTGTTCAAGCGCCATCTAC
binding signal: 1.13 RPM ratio (pull-down/input)

Sequence entry: GATGATTGTTCTCCCAGCTGATGAATTGTGTGCCTCGAGTAAACAAATTTTCCTAATCTTTCTGTTCAAGCGCCATCTAC
binding signal: 1.14 RPM ratio (pull-down/input)

Sequence entry: GATGATTGTTCTCCCAGCTGATGAATTGGGGCAATCGAGTAAACAAATTTTCCTAATCTTTCTGTTCAAGCGCCATCTAC
binding signal: 1.01 RPM ratio (pull-down/input)

Sequence entry: GATGATTGTTCTCCCAGCTGATGAATTGCCAATGTCGAGTAAACAAATTTTCCTAATCTTTCTGTTCAAGCGCCATCTAC
binding signal: 0.943 RPM ratio (pull-down/input)

Numbers sourced from paper PMC12820563.
